Test system: U2OS
experimental.details: cell viability relative to DMSO; higher = less toxic
assay.setup: 72 h; 1000 nM
For each of the compounds below, state its cell viability.
API: value field is a number in %; no unit string.

Challenge: Notebook: pull reported cell viability for U2OS, entry CCNC(=O)NS(=O)(=O)c1sc(CC(C)C)cc1-c1ccc(Cn2c(-c3ccccc3)nc(OC)c2C=O)cc1 [AVE-0991]
Response given: 100

Challenge: Moving on to COc1cc(S(C)(=O)=O)ccc1Nc1nc2ccc(-c3ccc(NC(=O)[C@H](C)c4ccc(F)cc4)cc3)cn2n1 [Mps1-IN-5]
Response given: 66.7

Challenge: Another compound: CCCCCCCCCCC(=O)O[C@H]1CC[C@H]2[C@@H]3CCC4=CC(=O)CC[C@]4(C)[C@H]3CC[C@]12C [Testosterone (undecanoate)]
Response given: 99.4

Challenge: Would you mind doing CCCCn1c(=O)c2[nH]c(C34CC5CC(CC3C5)C4)nc2n(CCCO)c1=O [PSB-36] as well?
Response given: 89.1

Challenge: Same thing, different compound: Cc1ccc(-c2nc3ccc(C)cn3c2CC(=O)N(C)C)cc1 [ZOLPIDEM]
Response given: 100

Challenge: Similarly, Clc1cc(Cl)c(OCC#CI)cc1Cl [haloprogin] ?
Response given: 95.2

Challenge: O=C(c1ccc(C(=O)N2CCC(N3CCCC3)CC2)c(Nc2ccccc2)c1)N1CCC(N2CCCC2)CC1 [UNC1215] ?
Response given: 97.9

Challenge: And the next one, CCN(CC)C(=S)S [ditiocarb-sodium-trihydrate] ?
Response given: 101

Challenge: Would you mind doing COc1cc(C[C@H](C)[C@H](C)Cc2ccc3c(c2)OCO3)ccc1O [macelignan] as well?
Response given: 101

Challenge: Continue with O=C(C[C@H]1CC(c2ccc(F)cc2F)=NO1)N1CCOCC1 (racemic) [CPSI-1306-(+/-)]
Response given: 102

Challenge: Please answer likewise for Cc1ccc(-c2ccc(F)cc2COc2ccc(CCC(=O)O)cc2)cc1 [TUG-891]
Response given: 93.6

Challenge: Here is the next compound: "CNc1cc2c(Nc3cccc(Br)c3)ncnc2cn1"
Response given: 92.2

Challenge: Try the compound CNC[C@H](O)c1cccc(O)c1 [phenylephrine]
Response given: 102

Challenge: Then CC(C)(C)c1cc(C=C(C#N)C#N)cc(Br)c1O [AG-1024] ?
Response given: 96.4

Challenge: Try N[C@@H](Cc1cc(CP(=O)(O)O)cc(-c2ccccc2Cl)c1)C(=O)O [SDZ-220-581] next.
Response given: 106

Challenge: What about CCCCOC(=O)c1ccc(N)cc1 [butamben] ?
Response given: 94.9

Challenge: Also check CCCNC(=O)N1N=C(c2ccc(N)cc2)c2cc3c(cc2C1C)OCO3 (stereo not drawn) [SYM-2206]
Response given: 103

Challenge: Now this one: CC(=O)N(CC(O)CN(C(C)=O)c1c(I)c(C(=O)NCC(O)CO)c(I)c(C(=O)NCC(O)CO)c1I)c1c(I)c(C(=O)NCC(O)CO)c(I)c(C(=O)NCC(O)CO)c1I (stereo not drawn) [iodixanol]
Response given: 108

###

Test system: Vero E6
experimental.details: cell viability relative to DMSO; higher = less toxic
assay.setup: 72 h; 100 nM
Exercise: for every item that follows, state its recorded cell viability.
Report only the number, with the unit % understood.

Challenge: // map "CN[C@@H]1[C@@H](O[C@H]2O[C@H](CO)[C@@H](N)[C@H](O)[C@H]2O)O[C@H]2C[C@@H](N)[C@@H](O[C@H]3[C@H](O)[C@@H](O)[C@H](N)C[C@@H]3N)O[C@@H]2[C@@H]1O" to recorded cell viability (system: Vero E6)
Response given: 93.2

Challenge: Then "Oc1cccc2cccnc12" ?
Response given: 94.2

Challenge: Try this molecule too: "C#CCN[C@@H]1CCc2ccccc21"
Response given: 102

Challenge: Same read-out for Cc1ccccc1C(C(=O)NC1CCCCC1)N(C(=O)Cn1ccnc1C)c1cccc(F)c1 (centres undefined) ?
Response given: 98.9
